- Tested on: EKVX NSCLC
- method: NCI-60 one-dose screen, 48 h
- conditions_used: 10 µM unless noted
The panel holds about 83,000 compounds, 20% with a hit somewhere; the sample as a whole holds those more often. Calls of active or inactive are those of the source. The calls were made as follows: active = growth percent below 10; inactive = the rest.
In this exercise, the only acceptable responses are active, inactive

What call does the record list for CC[C@@H](C[C@H](CCO)c1ccccc1)c1cc2ccccc2o1 ?
inactive

What call does the record list for CCc1c(C(=O)N[C@@H]2c3cc(Cl)ccc3CC[C@@H]2O)[nH]c(C)c1C(C)=O ?
inactive

What call does the record list for Nc1nc(Nc2ccc(Cl)cc2)nn1S(=O)(=O)c1ccc(-c2ccc(F)cc2)cc1 ?
inactive

What call does the record list for NC(=Nc1ccc(N)cc1)C(N)=Nc1ccc(N)cc1 ?
inactive

What call does the record list for CCOC(=O)N1CCc2c(sc3c2C(=O)N[C@H](c2ccc(OC)cc2)N3)C1 ?
inactive

What call does the record list for Cc1nc(Nc2ccc(NC(=S)Nc3ccccc3)cc2)nc2nc(Nc3ccc(S(=O)(=O)O)cc3)[nH]c(=O)c12 ?
inactive

What call does the record list for COc1cc2c(O)n(CCCn3ccnc3)c3c4cnc5cccc(c(=O)c3c2cc1OC)c54 ?
inactive

What call does the record list for CCCCCCCC/C=C/CCCCCCCC1=NCC[N+]1(CCO)CCO ?
inactive

----------
- System: 786-0 renal
- method: NCI-60 one-dose screen, 48 h
- conditions_used: 10 µM unless noted
About 83,000 compounds went through this panel and 20% of them were active in at least one assay; those are over-represented in the sample as a whole. The source made the active and inactive calls. How the source made its calls: active means growth percent below 10; inactive means the rest.
In this exercise, the only acceptable responses are active, inactive

C=C(Cl)COC(=O)C(C)(C)O    inactive
Cc1nn(-c2ccccc2)c2c1C(c1ccc([N+](=O)[O-])cc1)C(C#N)=C(N)O2 (stereo not given)    inactive
Nc1ccn(C2OC(F)(CO)C(O)C2F)c(=O)n1 (stereo not given)    inactive
O=C(O)CC1Sc2ccccc2NC1=O (stereo not given)    inactive
CN1C(=O)CCC(N2C(=O)c3cccc(NCCOCCOCCNC(=O)c4cc5c(o4)C(=O)c4ccccc4C5=O)c3C2=O)C1=O (stereo not given)    active
C=C1c2c(C)nn(-c3ccc(O)cc3)c2N(C)C23C[C@@H]1C1(C)c4c(C)nn(-c5ccc(O)cc5)c4N(C)C(C)(C[C@H]12)C3 (stereo not given in full)    inactive

What call does the record list for N=C(N)c1ccc(-c2ccc(-c3ccc(Cl)cc3Cl)o2)nc1 ?
active

What call does the record list for CCN(CC)CCOc1ccc(/C(=C(\C)c2ccc(OC)c(F)c2)c2ccc(Cl)cc2)cc1 ?
inactive

What call does the record list for N=C(N)c1ccc(-c2ccc(-c3ccc(Cl)c(Cl)c3)o2)cc1 ?
active

What call does the record list for Nc1ccc(CCCCc2ccccc2)c(Cl)c1 ?
inactive

----------
Listed here: items and their measured growth.
- Tested on: DU-145 prostate
- method: NCI-60 one-dose screen, 48 h (100 = growth as untreated, 0 = no growth, -100 = all killed)
- conditions_used: 10 µM unless noted
This is part of a sample that, as a whole, favours compounds with a hit. Of some 83,000 tested, about 20% had one in any assay.
Write the answer as a number in %, unit excluded.

O=c1ccn(C2OC(F)(CO)C(O)C2F)c(=O)[nH]1 (centres undefined)    110
N#Cc1c(NC(=O)c2ccccc2I)sc2c1CCCC2    62.9
CCn1c(Sc2nnc(NC(=O)CCN3CCCC3)s2)nc2c1c(=O)n(C)c(=O)n2C    104
CC(C)OC(=O)OCOP(=O)(OCOC(=O)OC(C)C)C1CCCN(O)C1=O (centres undefined)    52.5
Clc1ccc(-c2cn(-c3ccccc3)c(-c3ccccc3)n2)cc1    93.9

Endpoint output: growth of Cc1nc(C)c(-c2nn3c(-c4cccc(F)c4)nnc3s2)s1 . Value?
102

Endpoint output: growth of CN1CCN(C(=O)[C@@]2(C)CC[C@]3(C)CC[C@]4(C)C(=CC[C@@H]5[C@@]6(C)C/C(=C/c7ccncc7)C(=O)C(C)(C)[C@@H]6CC[C@]54C)[C@@H]3C2)CC1 . Value?
76.1

Endpoint output: growth of CS(=O)(=O)c1ccc(N/N=C/c2c(-c3ccc(S(C)(=O)=O)cc3)[nH]c3ccc(F)cc23)cc1 . Value?
39.9

Endpoint output: growth of COc1ccc(Nc2ncc(Br)c(NCCCNC(=O)C3CCC3)n2)cc1 . Value?
38.9
